The reported numbers originate from the supplement of paper PMC10567573.

protein stability index values, listed per item
B1: FBF1 (parent)
chain: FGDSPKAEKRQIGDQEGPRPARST

# Variants of: B1
# assay-notes: protein stability index of a GFP-peptide fusion (GPS, HEK-293T) (PSI 1-6); higher = more stable;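 further: lentivirally expressed fusions sorted by FACS into six bins by GFP to DsRed ratio, PSI derived from sequencing read proportions per bin multiplied by bin number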
# conditions: c terminus: a fixed tail appended
Respond using a number only.

Please review the entries below; each comes with its answer.
biopolymer-sequence: FGDHPKAEKRQIGDQEGPRPARST [S4H]
experimental-value: 5.43
//
biopolymer-sequence: FGDTPKAEKRQIGDQEGPRPARST [S4T]
experimental-value: 4.16
//
biopolymer-sequence: FGDSPKAEKRQIGDQFGPRPARST [E16F]
experimental-value: 4.55
//
biopolymer-sequence: FGHSPKAEKRQIGDQEGPRPARST [D3H]
experimental-value: 4.49
//
biopolymer-sequence: FPDSPKAEKRQIGDQEGPRPARST [G2P]
experimental-value: 5.29
//
biopolymer-sequence: FGDSTKAEKRQIGDQEGPRPARST [P5T]
experimental-value: 5.19
//
biopolymer-sequence: FGDSPKAEKRQIGDNEGPRPARST [Q15N]
experimental-value: 4.69
//
biopolymer-sequence: FGESPKAEKRQIGDQEGPRPARST [D3E]
experimental-value: 5.41

Short answer for FGDSPKAEKRQIGDQEGPREARST [P20E] : protein stability index was 5.58

Short answer for FGDSPKAEKEQIGDQEGPRPARST [R10E] : protein stability index was 5.63

Short answer for FGDSPKAEKRQIGDQEGPRPPRST [A21P] : protein stability index was 5.19
